Parameter log10(IC50), tested on Fatty Acid Synthase Keto-reductase Domain (FASN KR) (Homo sapiens, UniProt P49327), listed per item.
Sequence (P49327 whole entry, the tested form may be a part): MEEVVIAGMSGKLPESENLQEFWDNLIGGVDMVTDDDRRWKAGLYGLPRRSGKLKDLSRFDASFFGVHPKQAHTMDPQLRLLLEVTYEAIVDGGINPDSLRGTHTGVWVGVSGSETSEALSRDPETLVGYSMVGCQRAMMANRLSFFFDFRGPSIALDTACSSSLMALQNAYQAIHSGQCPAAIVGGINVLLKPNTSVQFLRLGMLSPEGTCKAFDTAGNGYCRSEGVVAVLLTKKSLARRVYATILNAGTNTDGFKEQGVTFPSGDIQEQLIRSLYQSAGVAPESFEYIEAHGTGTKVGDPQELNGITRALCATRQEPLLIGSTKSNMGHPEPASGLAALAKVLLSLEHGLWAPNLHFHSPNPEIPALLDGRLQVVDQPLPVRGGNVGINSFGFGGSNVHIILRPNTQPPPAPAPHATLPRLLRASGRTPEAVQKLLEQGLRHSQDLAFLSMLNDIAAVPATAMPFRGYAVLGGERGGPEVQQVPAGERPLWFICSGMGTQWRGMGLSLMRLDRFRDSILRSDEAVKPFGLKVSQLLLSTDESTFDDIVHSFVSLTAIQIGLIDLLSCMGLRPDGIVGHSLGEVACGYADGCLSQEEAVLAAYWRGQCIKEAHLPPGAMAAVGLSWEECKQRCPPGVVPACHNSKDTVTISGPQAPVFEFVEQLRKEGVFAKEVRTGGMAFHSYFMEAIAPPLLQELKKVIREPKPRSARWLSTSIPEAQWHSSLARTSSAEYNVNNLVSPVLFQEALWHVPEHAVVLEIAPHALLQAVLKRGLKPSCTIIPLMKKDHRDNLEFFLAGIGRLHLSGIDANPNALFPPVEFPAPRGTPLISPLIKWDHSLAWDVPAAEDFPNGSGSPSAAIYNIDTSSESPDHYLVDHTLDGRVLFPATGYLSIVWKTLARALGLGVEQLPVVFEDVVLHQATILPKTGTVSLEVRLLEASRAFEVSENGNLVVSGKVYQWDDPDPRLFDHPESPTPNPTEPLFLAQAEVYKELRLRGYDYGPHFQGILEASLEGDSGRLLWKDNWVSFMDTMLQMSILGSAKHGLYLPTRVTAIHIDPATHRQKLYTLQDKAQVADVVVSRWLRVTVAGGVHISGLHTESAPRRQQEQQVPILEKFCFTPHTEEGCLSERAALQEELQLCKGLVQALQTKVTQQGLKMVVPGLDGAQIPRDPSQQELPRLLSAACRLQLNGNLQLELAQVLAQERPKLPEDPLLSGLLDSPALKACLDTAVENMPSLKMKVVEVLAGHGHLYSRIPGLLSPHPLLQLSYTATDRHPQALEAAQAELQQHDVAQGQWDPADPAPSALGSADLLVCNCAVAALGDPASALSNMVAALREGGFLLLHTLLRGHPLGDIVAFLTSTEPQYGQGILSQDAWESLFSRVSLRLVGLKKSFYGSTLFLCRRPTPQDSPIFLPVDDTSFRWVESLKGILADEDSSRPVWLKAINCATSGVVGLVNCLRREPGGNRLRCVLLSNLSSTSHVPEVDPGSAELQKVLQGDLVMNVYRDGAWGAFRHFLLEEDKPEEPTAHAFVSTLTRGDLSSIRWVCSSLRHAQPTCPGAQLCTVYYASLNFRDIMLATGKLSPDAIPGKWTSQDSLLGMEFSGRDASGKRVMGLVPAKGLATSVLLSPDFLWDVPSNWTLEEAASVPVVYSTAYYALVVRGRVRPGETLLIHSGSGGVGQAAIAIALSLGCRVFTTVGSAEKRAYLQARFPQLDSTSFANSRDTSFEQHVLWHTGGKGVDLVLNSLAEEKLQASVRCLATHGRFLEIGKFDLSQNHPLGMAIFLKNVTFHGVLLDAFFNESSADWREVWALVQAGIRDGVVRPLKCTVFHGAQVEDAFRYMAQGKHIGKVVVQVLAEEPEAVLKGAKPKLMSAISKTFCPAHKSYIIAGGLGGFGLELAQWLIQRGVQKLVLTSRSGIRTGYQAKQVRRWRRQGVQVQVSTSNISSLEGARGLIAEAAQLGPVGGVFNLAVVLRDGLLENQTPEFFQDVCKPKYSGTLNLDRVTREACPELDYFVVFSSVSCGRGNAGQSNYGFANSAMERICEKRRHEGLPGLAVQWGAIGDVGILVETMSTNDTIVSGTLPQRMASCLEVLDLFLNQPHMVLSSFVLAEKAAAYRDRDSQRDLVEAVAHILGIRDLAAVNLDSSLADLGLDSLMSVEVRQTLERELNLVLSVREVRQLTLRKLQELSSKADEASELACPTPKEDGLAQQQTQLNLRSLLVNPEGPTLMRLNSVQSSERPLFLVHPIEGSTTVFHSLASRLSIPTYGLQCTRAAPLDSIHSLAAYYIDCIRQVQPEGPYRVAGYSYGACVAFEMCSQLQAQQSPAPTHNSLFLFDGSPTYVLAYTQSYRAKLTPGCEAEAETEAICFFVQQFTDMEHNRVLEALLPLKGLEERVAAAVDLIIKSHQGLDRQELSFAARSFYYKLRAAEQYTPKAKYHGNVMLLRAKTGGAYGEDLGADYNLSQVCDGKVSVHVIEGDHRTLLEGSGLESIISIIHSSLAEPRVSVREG
experimental-readout: log10(IC50) (log10 of the value in nM)

INSERT INTO measurements (chemical_smiles, system, numeric_result) VALUES
  ('O=C(C1CC1)N1CC[C@@H](CN2C(=O)C3(CC3)N=C2c2ccc(-c3ccc4cc[nH]c4c3)c(F)c2)C1', 'Fatty Acid Synthase Keto-reductase Domain (FASN KR) (Homo sapiens, UniProt P49327)', 1.98),
  ('Cc1cc(-c2ccc(-c3ccn(CC4CC4)n3)cc2)ccc1C1=NC2(CC2)C(=O)N1CC1CN(C(=O)C2(C)CC2)C1', 'Fatty Acid Synthase Keto-reductase Domain (FASN KR) (Homo sapiens, UniProt P49327)', 2.70),
  ('Cc1cc2cc(-c3ccc(C4=NC5(CC5)C(=O)N4CC4CN(C(=O)C5CC5)C4)c(C)c3)ccc2o1', 'Fatty Acid Synthase Keto-reductase Domain (FASN KR) (Homo sapiens, UniProt P49327)', 2.51),
  ('Cc1cc(-c2ccc3cc(OC(C)C)ccc3c2)ccc1C1=NC2(CC2)C(=O)N1CC1CN(C(=O)C2(C)CC2)C1', 'Fatty Acid Synthase Keto-reductase Domain (FASN KR) (Homo sapiens, UniProt P49327)', 2.80),
  ('Cc1cc(-c2ccc3cc(Cl)cnc3c2)ccc1C1=NC2(CC2)C(=O)N1CC1CN(C(=O)C2(C)CC2)C1', 'Fatty Acid Synthase Keto-reductase Domain (FASN KR) (Homo sapiens, UniProt P49327)', 1.58),
  ('Cc1cc(-c2ccc3ccc(C#N)nc3c2)ccc1C1=NC2(CC2)C(=O)N1CC1CN(C(=O)C2(C)CC2)C1', 'Fatty Acid Synthase Keto-reductase Domain (FASN KR) (Homo sapiens, UniProt P49327)', 3.94),
  ('O=C(C1CC1)N1CCC(CN2C(=O)C3(CC3)N=C2c2ccc(-c3ccc4[nH]ccc4c3)cc2)CC1', 'Fatty Acid Synthase Keto-reductase Domain (FASN KR) (Homo sapiens, UniProt P49327)', 2.70);
